tested on: Rattus norvegicus; experiment: The compound at 1 mg/kg was tested in vivo for inhibitory effect on 48-h homologous passive cutaneous anaphylaxis (PCA) in rats administered perorally
Listed here are compounds together with their documented Inhibition.
Give the value in % but do not write % after it.

The examples below pair each entry with its known result.
CN(C)CC/C=C1/c2ccccc2COc2cc(C(=O)O)ccc21 = 19
CN1CCN(C/C=C2\c3ccccc3COc3ccc(C(=O)O)cc32)CC1.O=C(O)/C=C/C(=O)O = 10
CN(C)C/C=C1\c2ccccc2COc2ccc(C(=O)O)cc21.O=C(O)/C=C/C(=O)O = 19

# ---- query compound ----
What measured Inhibition goes with O=C(O)/C=C/C(=O)O.O=C(O)c1ccc2c(c1)/C(=C/CN1CCOCC1)c1ccccc1CO2 ? 12
